Attribution: paper PMC9381713

Molecular target: T1, Dnase1L3 CTD peptide (cleaved from SH3-CTD) (human, UniProt Q13609)
T1 chain: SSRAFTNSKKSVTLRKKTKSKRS
Test: fluorescence polarization; 100 mM NaCl, 0.1 mM EDTA; FP: 50 mM Hepes pH 7.5 (Results say pH 7.4), 100 mM NaCl, 0.1 mM EDTA (1 mM for Dnase1L3/Dnase1), 1% glycerol, 1 mM TCEP, 0.1% PEG 6000, 20 nM dsDNA, 30 min at
Details: protein: recombinant; tags: TEV-cleaved from His-SH3 fusion; label: 5'-FAM on strand 1; blunt
pKd: −log10 of the molar value.
measurement kind: pKd

binder="FAM 40-mer dsDNA (dsDNA) DNA 1: GTGTTCGGACTCTGCCTCAAGACGGTAGTCAACGTGCTTG DNA 2: CAAGCACGTTGACTACCGTCTTGAGGCAGAGTCCGAACAC" measurement_kind=pKd endpoint_result=5.31
